Data provenance is ChEMBL document CHEMBL4251608.

# TEST DETAILS: Selectivity index, ratio of CC50 for HEL cells to EC50 for HSV2 strain G infected in HEL cells
# Assay type: toxicity, cell-based
# COND: human, read-out: Ratio CC50/EC50
OBSERVED PROPERTY: selectivity ratio
No unit in the answer, only the number.

Challenge: Using the record for `Cc1cn([C@H]2C[C@H](O)[C@@H](CO)O2)c(=O)c[n+]1[O-]` , report its selectivity ratio.
Response given: 24

###

Reported pEC50 by item:
# Test system: Human alphaherpesvirus 1
# TEST DETAILS: Antiviral activity against acyclovir-resistant HSV1 KOS harboring TK- mutant infected in HEL cells assessed as reduction in virus-induced cytopathic effect after 2 to 3 days
# Type: functional, organism-based
# COND: Human alphaherpesvirus 1, KOS
Schema: pEC50 number; meaning minus log10 of the concentration expressed in molar units.

Cc1cn([C@H]2C[C@H](O)[C@@H](CO)O2)c(=O)c[n+]1[O-] = 4.23
Nc1ccn(C[C@@H](CO)OCP(=O)(O)O)c(=O)n1 = 5.81
Nc1nc2c(ncn2COCCO)c(=O)[nH]1 = 4.05

// below: pEC50 requested for another compound
Challenge: Using the record for `O=c1[nH]c(=O)n([C@H]2C[C@H](O)[C@@H](CO)O2)cc1/C=C/Br` , report its pEC50.
Response given: 4.70

###

Reported EC50 by item:
# System: Human alphaherpesvirus 2
# TEST DETAILS: Antiviral activity against HSV2 strain G infected in HEL cells assessed as reduction in virus-induced cytopathic effect after 2 to 3 days
# Assay type: functional, organism-based
# COND: Human alphaherpesvirus 2, strain G
# value in µM; strip the unit string

CCc1cn([C@@H]2C[C@H](O)[C@@H](CO)O2)c(=O)c[n+]1[O-] = 204

Challenge: Using the record for `CCc1cn([C@H]2C[C@H](O)[C@@H](CO)O2)c(=O)c[n+]1[O-]` , report its EC50.
Response given: 145

Challenge: Using the record for `Cc1cn([C@H]2C[C@H](O)[C@@H](CO)O2)c(=O)c[n+]1[O-]` , report its EC50.
Response given: 17.5

Challenge: Using the record for `Nc1ccn(C[C@@H](CO)OCP(=O)(O)O)c(=O)n1` , report its EC50.
Response given: 1.97

###

# Tested on: Human betaherpesvirus 5
# TEST DETAILS: Antiviral activity against HCMV AD169 infected in HEL cells assessed as reduction in virus-induced cytopathic effect after 6 to 7 days
# Assay type: functional, organism-based
# COND: Human betaherpesvirus 5, AD169, HEL
Reported EC50 by item:

Some solved cases for reference:
Cc1cn([C@@H]2C[C@H](O)[C@@H](CO)O2)c(=O)c[n+]1[O-] = > 82 µM
Cc1cn([C@H]2C[C@H](O)[C@@H](CO)O2)c(=O)c[n+]1[O-] = > 412 µM
CCc1cn([C@H]2C[C@H](O)[C@@H](CO)O2)c(=O)c[n+]1[O-] = > 78 µM
CCc1cn([C@@H]2C[C@H](O)[C@@H](CO)O2)c(=O)c[n+]1[O-] = > 78 µM
Nc1ccn(C[C@@H](CO)OCP(=O)(O)O)c(=O)n1 [CIDOFOVIR] = 1.04 µM

Challenge: Using the record for `O=c1c[n+]([O-])ccn1[C@@H]1C[C@H](O)[C@@H](CO)O1` , report its EC50.
Response given: > 87 µM

Challenge: Using the record for `O=c1c[n+]([O-])ccn1[C@H]1C[C@H](O)[C@@H](CO)O1` , report its EC50.
Response given: > 438 µM
